- EXPERIMENTAL_TARGET: recombinant human Aggrecanase-2 Agg2-Phe628 (Homo sapiens, UniProt Q9UNA0)
- Sequence (Q9UNA0 262-628 limits assumed): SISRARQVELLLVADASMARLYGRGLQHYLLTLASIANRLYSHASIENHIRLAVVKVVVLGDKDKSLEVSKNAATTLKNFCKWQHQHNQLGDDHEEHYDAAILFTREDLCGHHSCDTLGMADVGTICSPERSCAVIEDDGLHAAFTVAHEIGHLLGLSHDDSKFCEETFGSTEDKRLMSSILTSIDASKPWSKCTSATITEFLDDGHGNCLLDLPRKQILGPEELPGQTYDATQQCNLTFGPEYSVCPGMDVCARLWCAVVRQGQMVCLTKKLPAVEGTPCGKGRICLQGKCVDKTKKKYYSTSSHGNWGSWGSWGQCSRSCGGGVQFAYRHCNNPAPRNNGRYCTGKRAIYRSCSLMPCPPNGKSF
- METHOD_DESCRIPTION: Aggrecanase 2 in vitro enzyme assay (Agg-2 FRET, quenched fluorescent peptide substrate)
- Type: biochemical
- Parameters: purified recombinant human Aggrecanase-2 Agg2-Phe628 (MW=41,737); This is a truncated form of full-length human aggrecanase-2; made in house; host or cells: CHO cells
- RECORDED_CONDITIONS: read-out: Agg2 IC50
pIC50: −log10 of the molar value.
ATTRIBUTE_MEASURED: pIC50

molecule="CN(C)CC(=O)Nc1cccc(C(NC(=O)COc2ccccc2)c2cc(Cl)c3cccnc3c2O)c1 (stereo not shown)" experimental_target="recombinant human Aggrecanase-2 Agg2-Phe628 (Homo sapiens, UniProt Q9UNA0)" attribute_measured=pIC50 data_value=5.54
molecule="O=C(COc1ccccc1)NC(c1cc2c(cc1Cl)OCO2)c1cc(Cl)c2cccnc2c1O (stereo not shown)" experimental_target="recombinant human Aggrecanase-2 Agg2-Phe628 (Homo sapiens, UniProt Q9UNA0)" attribute_measured=pIC50 data_value=5.86
molecule="CNCC(=O)Nc1cccc(C(NC(=O)COc2ccccc2)c2cc(Cl)c3cccnc3c2O)c1 (stereo not shown)" experimental_target="recombinant human Aggrecanase-2 Agg2-Phe628 (Homo sapiens, UniProt Q9UNA0)" attribute_measured=pIC50 data_value=5.46
molecule="O=C(COc1ccccc1)NC(c1cnc2ccccc2c1)c1cc(Cl)c2cccnc2c1O (stereo not shown)" experimental_target="recombinant human Aggrecanase-2 Agg2-Phe628 (Homo sapiens, UniProt Q9UNA0)" attribute_measured=pIC50 data_value=5.89
